tested on: MS2 coat protein; assay: apparent KD of MS2 coat protein; designed switch direction (-1 OFF switch, 1 ON switch): 1; higher = weaker reporter binding; details: Eterna round: R98; input ligand: none
Quick rule for you: apparent KD of MS2 coat protein at 0.2 µM or higher means Y, lower means N.

Hi, just wondering whether CCUACCAACACAGGAUAUGCUAUCCUUUGGGUAGCAGAAGGGUGAAACAUGAGGAUCACCCAUGUGGUGGGACCCGGUGACGGG [Mat - Same State NG 1 - Eli mod - D70] shows apparent KD of MS2 coat protein of 0.2 µM or higher. Y

Hi, just wondering whether ACAUGAGGAUCACCCAUGUAAUAACAUCGGAUUGUCGAAGGUGAGGAUAUCGUACUGGAAUAUUUCGAGAAGGCACAUUCUCCU [JR_SSNG3_Sub075] shows apparent KD of MS2 coat protein of 0.2 µM or higher. N

Hi, just wondering whether CAUGAAGGGUGAGGAUAUGCACAGGAUCACCGUGUAGAAGGCAUCAGGUAGAAGGUGCAGAGGAUCACCCUGUAAGGAUAUAUC [pwkr2 ssNG1 DX.16] shows apparent KD of MS2 coat protein of 0.2 µM or higher. Y

Hi, just wondering whether UCACUCACGUCAGGAUAUGGAUCGGAAAACGAUCCAGAAGGGACCUGCAAACCUGAGGAUCACCCUGGUUCCAAUAACGAGUGA [SameSame 10 - Jieux - Same State NG 1] shows apparent KD of MS2 coat protein of 0.2 µM or higher. Y

Hi, just wondering whether CUAGCAUACCGAGGAUAUUCAUAUAAUAAAUAAACAUGAGGAUCACCCAUGUGGCGAAAGCCUAGGGAGAAGGCGGAAUGCUAG [salish99_SSNG2_r2_004] shows apparent KD of MS2 coat protein of 0.2 µM or higher. Y

Hi, just wondering whether GUAGCAUACCGAGGAUAUUCAUAUAAUAAAUAAACAUGAGGAUCACCCAUGUGGCGAAAGCCUAGGGAGAAGGCGGAAUGCUAG [salish99_SSNG2_r2_003] shows apparent KD of MS2 coat protein of 0.2 µM or higher. Y

====

system: MS2 coat protein; experiment: apparent KD of MS2 coat protein, switch ON state; designed switch direction (-1 OFF switch, 1 ON switch): -1; higher = weaker reporter binding; conditions: FMN input: 0 or 200 uM; Eterna round: R93 (includes R88 designs)
measuredParameter: apparent KD of MS2 coat protein (nM)
# output: bare number, implied unit nM

Entry AAGAAUGGAGGAUAUACAUGAGGAUCACCCAUGUAAAAGAAAGAAAAGGGAAAGAAAAGUAGAAGGCCAAAGAA [Sekhaenre/Akhenre Merenptah Siptah] — recorded apparent KD of MS2 coat protein = 28.5

Entry GAAAAGUGAGGAUAUGCGAAGGCGUCUGAUAGACGAGGCUAGCAGAAGGCACAUGAGGAUCACCCAUGUGGGAA [Mat - Exclusion 4 - Eli mod - D91] — recorded apparent KD of MS2 coat protein = 71.6

Entry AAGCCACAUGAGGAUCACCCAUGUAAGGAUAUGAACGAAAUAAAAUAAAAAUAAAAGUUCAGAAGGUACAAAAA [Mat - Exclusion 1 - Eli mod - D23] — recorded apparent KD of MS2 coat protein = 20.2

Entry ACAAGGUCAGGAUAUACAUGAGGAUCACCCAUGUGAGAAUUCGAUUAAAACACACAAAGUAGAAGGGACCAGGA [Ruby 83] — recorded apparent KD of MS2 coat protein = 22

Entry AUCAUGUAAGGAUAUACAAGAAAAGAAAAGAAAGAAAAGAAGUAGAAGGUACAUGAGGAUCACCCAUGUAAGAA [EteRNA is fun!] — recorded apparent KD of MS2 coat protein = 61

Entry AAGACGUAAGGAUAUAUUAUGGGACAAUGAAGGAAGAUAAAACAUGAGGAUCACCCAUGUAGAAGGUGCAAAGA [JR_Exclusion2_Sub3] — recorded apparent KD of MS2 coat protein = 40.3

Entry AAAAACUCAGGAUAUAUUAUGGGACAAUGAAGGAAGAUAAAACAUGAGGAUCACCCAUGUAGAAGGGAGAAAAA [JR_Exclusion2_Sub2] — recorded apparent KD of MS2 coat protein = 57.7

Entry AAAAAGGGAGGAUAUACGAAACAGGGAAACCUGAAAAAGGGACAUGAGGAUCACCCAUGUAGAAGGCCCAAGAA [Clint Eastwood 64% 5] — recorded apparent KD of MS2 coat protein = 40.2

Entry CUUAUGUGAGGAUAUGUACAGAAAAAACUGGGUGUAACUGUACAGAAGGCACAUGAGGAUCACCCAUGUGCAAA [EX4 388: S S Pseudoknot 13] — recorded apparent KD of MS2 coat protein = 70.2

Entry AAAUAGUUAGGAUAUACAUGAGGAUCACCCAUGUGCACUUAUGGAGAAUAGGGUAAUGGUAGAAGGGACUAAAA [EX2 Malc#21] — recorded apparent KD of MS2 coat protein = 36.2

Entry AAAUAGCAAGGAUAUACAUGAGGAUCACCCAUGUAAGGAUGGUAAGUAUUAGAAGAAAGUAGAAGGUGCAAAUA [Ex 3 Tesla 5] — recorded apparent KD of MS2 coat protein = 33.6

Entry AAAAAGUAAGGAUAUACAAGAGAAAACACAAAAAAAAAAAAACAUGAGGAUCACCCAUGUAGAAGGUACAAAAA [Diamond 82] — recorded apparent KD of MS2 coat protein = 27.5

Entry UUCAAGUGAGGAUAUACGAAUAGUAAGUAAGUAUAACAGACGUAGAAGGCACAUGAGGAUCACCCAUGUAAAUA [JR_Exc004_Sub304] — recorded apparent KD of MS2 coat protein = 25.8

Entry AAAAAGUGAGGAUAUACAUGAGGAUCACCCAUGUGUAUAAAAAAUUACACAAAAGAAAGUAGAAGGCACUAAAG [Mat - Exclusion 3 - Mayanna mod - D112] — recorded apparent KD of MS2 coat protein = 17

Entry AGAAAACAUGAGGAUCACCCAUGUGAGGAUAUGCGAAUAAAGAAACAAAUAAAAGAAAGCAGAAGGCACAACAA [Ex 1 Tesla 4] — recorded apparent KD of MS2 coat protein = 31.9

Entry AAAAAGGCAGGAUAUACAUGAGGAUCACCCAUGUAAAGAAAAGAAAGAUCCAAAGAAAGUAGAAGGGCCAAAAA [Ex3 sub 3] — recorded apparent KD of MS2 coat protein = 48.8

Entry AAAAACUGAGGAUAUACGAAAAAAAAAAAAAAAAAAAAAAAACAUGAGGAUCACCCAUGUAGAAGGCAGAAAAA [exclusion 02 - A] — recorded apparent KD of MS2 coat protein = 41.4

Entry UAAAGGCGAGGAUAUACAUGAGGAUCACCCAUGUGAAUAAAUAAUAAAAUAAAAUAAAGUAGAAGGCGCAAUAA [LROPPY Exclusion 3 - v03_deltaG=1.9 break up As] — recorded apparent KD of MS2 coat protein = 53.9

Entry AAGAAUGCAGGAUAUACAUGAGGAUCACCCAUGUAAAAGAAAGAGGGAAAAGAGAAAAGUAGAAGGGCAAAGAA [Cleopatra III] — recorded apparent KD of MS2 coat protein = 26.1

Entry AGUAAACAUGAGGAUCACCCAUGUGAGGAUAUCGAAAAGAAAAGAAAAGAAAGAAGAAUGAGAAGGCACAAGAA [Huni] — recorded apparent KD of MS2 coat protein = 33.3

Entry AAGAUGUCAGGAUAUGCUUGUCGUCACAAAAGUGAUGACGAGCAGAAGGGACAUGAGGAUCACCCAUGUAAAGA [JL eternac mod 3] — recorded apparent KD of MS2 coat protein = 148

Entry AGUCGGCGAGGAUAUACAUGAGGAUCACCCAUGUGAGAGAAUAUAGUGAGUUAGACAAGUAGAAGGCGCUGACA [JL Lego Mod 11] — recorded apparent KD of MS2 coat protein = 43.2

Entry AUCUUGUCAGGAUAUGACUACAUAAAAAAAAAAAAAUGUAGUCAGAAGGGACAUGAGGAUCACCCAUGUACUAA [hsl_exclusion4] — recorded apparent KD of MS2 coat protein = 41.9

Entry UAAAGGAUAGGAUAUACAUGAGGAUCACCCAUGUGAAUAAAUAAGAAAAUAAAAGAAAGUAGAAGGAUCAAGAA [LROPPY Exclusion 3 - v04_deltaG=3.9 break up As mixed] — recorded apparent KD of MS2 coat protein = 25.2

Entry AGAAAGUGAGGAUAUUCGGAUAGGAAAACGAAAACCUAUCCGAAGAAGGCACAUGAGGAUCACCCAUGUAAAGA [Mat - Exaclusion 4 - Eli mod - D39] — recorded apparent KD of MS2 coat protein = 39.6

====

tested on: MS2 coat protein; test: apparent KD of MS2 coat protein; higher = weaker reporter binding; conditions: Eterna round: R107; input ligand: tryptophan 2.4 mM
# class assignment by measured apparent KD of MS2 coat protein: Low (below 20 nM), Medium (20 nM to below 60 nM), High (60 nM or more)

Please classify: ACAUGAGGAUCACCCAUGUAUGAUGUUCCUCGAGGACCGGUACGGCCGCCACUCGAACGAGUGGCGCGCGAGUGCGCACUCGCGC [aWa] Low

Please classify: UUGGAUAUGCGAAGGAGCGGGAAAUAUAUAUAUAUAAUCCUAACAUGAGGAUCACCCAUGUCCCAGGUAGGUCGCGCAUAUUUGG [12.H] Medium

Please classify: GCCCUUGGCAGCGAUACCAGCCAAAAUUAAAAUAAACCUCUACAUGAGGAUCACCCAUGUGGCCCUUGGCAGCGAUACCAGCAAA [#ReversedDoubbleAptamer 1] Medium

Please classify: CACAUGAGGAUCACCCAUGUCUGAACUGAAGGAGCGCUAAACAAGGCAGGUAGGUCGCGGAAUUUUGUGUGCAUAUGCACACGGG [9.R] Low

Please classify: UGCUACAUGAGGAUCACCCAUGUGGGUGAUACCAGCAUUCGUUAAUGCCCUUGGCAGCGCAGCCGAACCAUUCAUUCGGCAGAUC [Laxeor] High

Please classify: CAGUGAGAACGAAGGAGCGCUGAAUGAUGUGGACAUGAGGAUCACCCAUGUUAAGUCCAAUGGCAGGUAGGUCGCGUAACACUAG [Same State - Arginine B] Low

Please classify: GGAACGAUCACUUCUUUAUCUAAGGCGGAUACCAGUCCUCGGUUUGACCCUUGGCAGCCGACAACAUGAGGAUCACCCAUGUUCU [theeternabot_exclusion_MS2_Theo_A_25] Low

Please classify: UGUAAUGGGAUCAACCCAUGAGAGUCUGAAGGAGCGAUCGUAAGAUCAGGUAGGUCGCAGGAGACAUGAGGAUCACCCAUGUAUA [Arg A Ex t2] Medium

Please classify: ACGUAAUGCAGAAGGAGCGUCAUUCUCUUACAUGAGGAUCACCCAUGUUACAUGGUUUUAUGACAGGUAGGUCGCUGAAGUACGA [JR_SSArginiB_Sub004] High

Please classify: CAAUUUCGAAUAGAUACCAGCUGUCAUAAACACAUGAGGAUCACCCAUGUGCUUCUCGUCAGCCCUUGGCAGCUAUAACUAGAGC [theeternabot_sameState_MS2_Theo_B_40] Low

Please classify: `UGCCGAGACGUGGAUUACCCGUGUACCGAAGGAGCGCCCGAAAGGGCAGGUAGGUCGCGGAGGACAUGAGGAUCACCCAUGUUUA` Medium

Please classify: UACAUAUGCCGAAGGAGCGUGAGAUGCAAAGCAUCAUUCCUCACAUGAGGAUCACCCAUGUCACAGGUAGGUCGCGGCAUAUGUU [ArgBX 3] High
